tested on: PPARg DBDmut:RXRa IVT, anti-PPARg (DBD mutation: PPARg1 K132A/R137A, NR concentration 270 nM, RXRa partner concentration 90 nM); assay: PBM binding z-score (relative to random genomic background probes); higher = stronger binding; sequences stand for … in GC…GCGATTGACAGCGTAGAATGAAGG
RECORDED METRIC: PBM binding z-score
Give a plain numeric answer without units written out.

CCTTACGGGTCACGAGGTTATAGCTCGACGAGCG
3.54
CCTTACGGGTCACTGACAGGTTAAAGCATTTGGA
0.71
ACTATTAGTTGATTTAGGGCAACCGATACGACGC
2.12
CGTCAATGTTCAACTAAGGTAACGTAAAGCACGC
0.0203
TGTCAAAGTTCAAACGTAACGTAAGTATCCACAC
1.75
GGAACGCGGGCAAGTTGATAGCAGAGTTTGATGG
-0.461
AAATGTAGGTTACATCCGGGTCATTCAGGCTATG
3.52
ATCTCTAGGTAAAACTTCAGTGAATCCCGAGGAT
1.22

Given the sequence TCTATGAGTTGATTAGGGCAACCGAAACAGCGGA , what is its reported PBM binding z-score?
-0.00987

Given the sequence CGTCCAAGGTCAAAGCTCAGTGAAGAGATGACGG , what is its reported PBM binding z-score?
0.259

Given the sequence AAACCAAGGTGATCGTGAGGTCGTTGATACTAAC , what is its reported PBM binding z-score?
0.252

Given the sequence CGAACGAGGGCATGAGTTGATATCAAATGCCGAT , what is its reported PBM binding z-score?
0.21

Given the sequence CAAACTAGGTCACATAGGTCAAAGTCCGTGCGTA , what is its reported PBM binding z-score?
3

Given the sequence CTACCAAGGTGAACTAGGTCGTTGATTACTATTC , what is its reported PBM binding z-score?
0.391

Given the sequence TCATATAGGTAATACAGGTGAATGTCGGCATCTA , what is its reported PBM binding z-score?
1.54

Given the sequence GCGACTGGGGCATCAGCAGGTTACAATAACTTAA , what is its reported PBM binding z-score?
-0.414

Given the sequence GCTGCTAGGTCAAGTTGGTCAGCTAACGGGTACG , what is its reported PBM binding z-score?
-0.715

Given the sequence AGAATGAGGTTATACGTAGATCCGGGAAGAAAGT , what is its reported PBM binding z-score?
0.942

Given the sequence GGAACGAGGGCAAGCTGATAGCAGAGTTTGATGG , what is its reported PBM binding z-score?
-0.705

Given the sequence CCGACCGGGGCATAAGGTTACCATAAGCCAGCCC , what is its reported PBM binding z-score?
-0.828

====

Listed next: entries and their corresponding PBM binding z-score.
system: FXR:RXRa (NR concentration 270 nM, RXRa partner concentration 90 nM); experiment: PBM binding z-score (relative to random genomic background probes); higher = stronger binding; sequences stand for … in GC…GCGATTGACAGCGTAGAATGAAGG
Give a plain numeric answer without units written out.

CCTTACGGGTCAAGGTTAGAGCACGGGTGGTACG
5.52
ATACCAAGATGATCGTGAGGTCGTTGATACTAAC
1.11
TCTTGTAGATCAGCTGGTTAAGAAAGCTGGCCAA
0.0372
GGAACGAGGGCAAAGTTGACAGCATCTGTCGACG
2.02
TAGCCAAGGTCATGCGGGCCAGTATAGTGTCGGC
7.03
TCTTCTAGATCAAGCAGGTTAAGAAAGCCTGAGT
0.122
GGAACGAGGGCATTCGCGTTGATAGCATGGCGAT
0.794
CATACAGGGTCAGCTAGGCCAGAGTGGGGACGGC
4.45

Given the sequence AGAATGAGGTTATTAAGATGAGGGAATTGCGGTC , what is its reported PBM binding z-score?
1.61

Given the sequence GCTTACGGGTCAAAGGTTCTAGCATGAATAGAAT , what is its reported PBM binding z-score?
6.11

Given the sequence TAGCCTAGGTCATTGGGCCAGTGTAGTACGCATC , what is its reported PBM binding z-score?
4.3

====

system: PPARg homodimer (NR concentration 180 nM); experiment: PBM binding z-score (relative to random genomic background probes); higher = stronger binding; sequences stand for … in GC…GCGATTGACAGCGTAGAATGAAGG
Class assignment keyed on PBM binding z-score, ranges A: < 0.08; B: ≥ 0.08 and < 1; C: ≥ 1

Field: example entries. Status: answers known.
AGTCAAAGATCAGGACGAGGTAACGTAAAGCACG
A
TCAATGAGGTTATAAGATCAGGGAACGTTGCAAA
B
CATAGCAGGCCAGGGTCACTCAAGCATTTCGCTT
C

# bin lookup: classify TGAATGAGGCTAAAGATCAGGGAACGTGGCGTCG by its PBM binding z-score
A

# bin lookup: classify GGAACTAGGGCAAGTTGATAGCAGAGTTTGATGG by its PBM binding z-score
B

====

tested on: RXRa DBDmut IVT, anti-RXR (DBD mutation: RXRa K156A/R161A, NR concentration 90 nM); test: PBM binding z-score (relative to random genomic background probes); higher = stronger binding; sequences stand for … in GC…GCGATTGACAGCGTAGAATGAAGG
Returns Satisfied if the recorded PBM binding z-score is greater than or equal to 0.8, and Not satisfied otherwise.

Field: example entries. Status: answers known.
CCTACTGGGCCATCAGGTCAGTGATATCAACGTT
Not satisfied
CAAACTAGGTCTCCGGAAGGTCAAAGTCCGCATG
Not satisfied
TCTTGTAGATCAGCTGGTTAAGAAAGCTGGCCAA
Not satisfied

Threshold query (PBM binding z-score >= 0.8) on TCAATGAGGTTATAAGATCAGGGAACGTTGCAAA
Satisfied

Threshold query (PBM binding z-score >= 0.8) on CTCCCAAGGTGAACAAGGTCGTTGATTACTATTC
Satisfied

Threshold query (PBM binding z-score >= 0.8) on AATACAGGGGCACTAGGCCAGAGTAGGTACGAAT
Not satisfied

Threshold query (PBM binding z-score >= 0.8) on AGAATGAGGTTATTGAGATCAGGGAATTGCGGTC
Satisfied

Threshold query (PBM binding z-score >= 0.8) on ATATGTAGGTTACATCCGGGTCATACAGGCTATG
Not satisfied

====

system: PPARa:RXRa (NR concentration 270 nM, RXRa partner concentration 90 nM); assay: PBM binding z-score (relative to random genomic background probes); higher = stronger binding; sequences stand for … in GC…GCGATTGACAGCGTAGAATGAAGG
Returns MET if the recorded PBM binding z-score is greater than or equal to 2, and NOT MET otherwise.

Field: example entries. Status: answers known.
GATATTAGTTGAAAGGGCAACCGAATGATTCTCG
MET
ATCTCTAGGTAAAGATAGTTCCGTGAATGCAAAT
NOT MET
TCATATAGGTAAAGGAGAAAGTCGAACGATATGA
NOT MET
TAGCCTAGGTCAATCAGGGGCCAGTATAGAAAGC
MET
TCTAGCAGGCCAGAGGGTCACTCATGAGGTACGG
MET
TCACATAGGTAAACAGGTGAAAGTCCGTAAGTTA
MET

Threshold query (PBM binding z-score >= 2) on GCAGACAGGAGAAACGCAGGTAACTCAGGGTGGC
NOT MET

Threshold query (PBM binding z-score >= 2) on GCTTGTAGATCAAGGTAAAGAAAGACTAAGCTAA
NOT MET

Threshold query (PBM binding z-score >= 2) on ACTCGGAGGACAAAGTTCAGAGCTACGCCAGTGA
MET

Threshold query (PBM binding z-score >= 2) on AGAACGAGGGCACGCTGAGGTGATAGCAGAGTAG
MET

Threshold query (PBM binding z-score >= 2) on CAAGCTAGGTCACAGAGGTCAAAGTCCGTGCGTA
MET

Threshold query (PBM binding z-score >= 2) on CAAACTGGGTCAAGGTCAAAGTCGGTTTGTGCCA
MET

====

system: THRa:RXRa (NR concentration 90 nM, RXRa partner concentration 90 nM); assay: PBM binding z-score (relative to random genomic background probes); higher = stronger binding; sequences stand for … in GC…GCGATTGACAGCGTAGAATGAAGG
RECORDED METRIC: PBM binding z-score
Give a plain numeric answer without units written out.

// known answers, use as guide
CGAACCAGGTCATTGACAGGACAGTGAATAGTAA
3.31
TCTAGCAGGCCAGAGGGTCACTCAGGAGGTACGG
1.74
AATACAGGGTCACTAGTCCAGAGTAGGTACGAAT
3.31

Given the sequence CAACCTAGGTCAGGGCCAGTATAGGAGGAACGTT , what is its reported PBM binding z-score?
2.12

Given the sequence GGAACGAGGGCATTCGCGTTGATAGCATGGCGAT , what is its reported PBM binding z-score?
1.08

Given the sequence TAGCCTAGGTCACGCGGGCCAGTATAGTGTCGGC , what is its reported PBM binding z-score?
3.74

Given the sequence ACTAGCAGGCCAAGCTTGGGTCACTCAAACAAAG , what is its reported PBM binding z-score?
2.18

Given the sequence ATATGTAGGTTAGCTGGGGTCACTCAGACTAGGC , what is its reported PBM binding z-score?
5.18

Given the sequence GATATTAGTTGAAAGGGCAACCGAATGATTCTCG , what is its reported PBM binding z-score?
0.705

Given the sequence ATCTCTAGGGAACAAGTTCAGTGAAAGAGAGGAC , what is its reported PBM binding z-score?
0.823

Given the sequence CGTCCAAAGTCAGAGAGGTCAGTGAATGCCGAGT , what is its reported PBM binding z-score?
2.72

Given the sequence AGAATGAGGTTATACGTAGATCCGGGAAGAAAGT , what is its reported PBM binding z-score?
1.94

Given the sequence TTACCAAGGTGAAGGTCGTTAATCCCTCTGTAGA , what is its reported PBM binding z-score?
2.22

Given the sequence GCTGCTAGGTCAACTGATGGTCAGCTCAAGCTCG , what is its reported PBM binding z-score?
3.09

Given the sequence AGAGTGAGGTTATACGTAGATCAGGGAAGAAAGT , what is its reported PBM binding z-score?
2.21

Given the sequence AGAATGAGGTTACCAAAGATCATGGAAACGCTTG , what is its reported PBM binding z-score?
3.03

Given the sequence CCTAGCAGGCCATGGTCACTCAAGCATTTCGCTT , what is its reported PBM binding z-score?
-0.37

Given the sequence TCATATAGGTAAATGCTAGGTGAAAGTTCGATCT , what is its reported PBM binding z-score?
1.75

Given the sequence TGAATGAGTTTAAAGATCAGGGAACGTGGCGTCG , what is its reported PBM binding z-score?
-0.0905

Given the sequence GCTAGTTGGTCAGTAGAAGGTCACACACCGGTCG , what is its reported PBM binding z-score?
2.75

Given the sequence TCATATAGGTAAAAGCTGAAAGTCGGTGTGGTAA , what is its reported PBM binding z-score?
-0.258
